Below, each of the molecules is paired with its reported IC50 value.
Sequence of the target: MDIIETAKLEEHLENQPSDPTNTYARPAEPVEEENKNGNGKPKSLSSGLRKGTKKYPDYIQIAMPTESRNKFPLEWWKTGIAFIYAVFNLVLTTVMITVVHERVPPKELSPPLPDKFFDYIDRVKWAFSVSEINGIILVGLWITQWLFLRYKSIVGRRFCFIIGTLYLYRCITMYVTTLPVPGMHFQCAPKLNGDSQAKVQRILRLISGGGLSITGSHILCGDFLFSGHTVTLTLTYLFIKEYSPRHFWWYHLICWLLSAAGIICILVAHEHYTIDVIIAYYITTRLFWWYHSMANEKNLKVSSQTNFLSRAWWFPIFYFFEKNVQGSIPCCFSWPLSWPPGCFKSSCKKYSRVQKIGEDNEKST
Please reply with the bare figure in nM and do not write the unit itself.

Here is how some molecules turned out for IC50.
smi=Cc1cccc(COc2cccc3onc(Nc4cccnc4)c23)c1 measurement_unit=nM recorded_number=190
smi=FC(F)(F)Oc1ccccc1COc1cccc2onc(Nc3cccnc3)c12 measurement_unit=nM recorded_number=107
smi=FC(F)(F)Oc1ccc(Cl)cc1COc1cccc2onc(Nc3cccnc3)c12 measurement_unit=nM recorded_number=2000

From here, focus on the item given below.
Given the entry FC(F)(F)c1cccc(COc2cccc3onc(Nc4cccnc4)c23)c1 , report its measured IC50.
486
